# tgt: M. smegmatis RecBCD (Mycolicibacterium smegmatis, UniProt A0QS28+A0QS29+A0QS30)
# Sequence (A0QS29 whole entry): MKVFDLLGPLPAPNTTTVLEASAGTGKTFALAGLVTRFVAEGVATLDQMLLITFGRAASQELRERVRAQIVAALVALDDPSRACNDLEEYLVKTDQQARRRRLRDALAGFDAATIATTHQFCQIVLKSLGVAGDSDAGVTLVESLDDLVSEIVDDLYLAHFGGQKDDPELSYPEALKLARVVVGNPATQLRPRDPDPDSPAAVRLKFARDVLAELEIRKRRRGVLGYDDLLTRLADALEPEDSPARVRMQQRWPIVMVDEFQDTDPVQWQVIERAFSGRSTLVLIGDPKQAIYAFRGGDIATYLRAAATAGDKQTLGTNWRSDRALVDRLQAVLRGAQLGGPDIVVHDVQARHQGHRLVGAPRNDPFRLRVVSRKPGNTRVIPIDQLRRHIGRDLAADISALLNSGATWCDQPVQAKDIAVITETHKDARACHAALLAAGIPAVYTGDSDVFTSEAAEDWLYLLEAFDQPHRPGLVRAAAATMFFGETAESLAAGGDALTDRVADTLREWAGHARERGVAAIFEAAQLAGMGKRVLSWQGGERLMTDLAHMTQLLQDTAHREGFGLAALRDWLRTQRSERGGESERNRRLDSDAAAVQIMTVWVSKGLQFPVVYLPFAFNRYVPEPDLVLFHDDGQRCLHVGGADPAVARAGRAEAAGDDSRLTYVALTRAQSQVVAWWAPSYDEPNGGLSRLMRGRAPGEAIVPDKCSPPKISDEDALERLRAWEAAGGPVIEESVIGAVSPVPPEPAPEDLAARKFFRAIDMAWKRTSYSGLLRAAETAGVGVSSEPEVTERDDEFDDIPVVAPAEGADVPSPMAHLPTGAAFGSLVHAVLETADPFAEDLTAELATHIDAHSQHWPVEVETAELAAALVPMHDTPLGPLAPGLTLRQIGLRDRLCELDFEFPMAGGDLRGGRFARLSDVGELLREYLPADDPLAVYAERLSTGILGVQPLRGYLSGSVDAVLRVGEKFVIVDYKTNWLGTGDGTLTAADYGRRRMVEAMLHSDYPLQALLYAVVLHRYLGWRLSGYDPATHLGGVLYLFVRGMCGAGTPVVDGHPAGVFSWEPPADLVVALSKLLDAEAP
# Sequence (A0QS28 whole entry): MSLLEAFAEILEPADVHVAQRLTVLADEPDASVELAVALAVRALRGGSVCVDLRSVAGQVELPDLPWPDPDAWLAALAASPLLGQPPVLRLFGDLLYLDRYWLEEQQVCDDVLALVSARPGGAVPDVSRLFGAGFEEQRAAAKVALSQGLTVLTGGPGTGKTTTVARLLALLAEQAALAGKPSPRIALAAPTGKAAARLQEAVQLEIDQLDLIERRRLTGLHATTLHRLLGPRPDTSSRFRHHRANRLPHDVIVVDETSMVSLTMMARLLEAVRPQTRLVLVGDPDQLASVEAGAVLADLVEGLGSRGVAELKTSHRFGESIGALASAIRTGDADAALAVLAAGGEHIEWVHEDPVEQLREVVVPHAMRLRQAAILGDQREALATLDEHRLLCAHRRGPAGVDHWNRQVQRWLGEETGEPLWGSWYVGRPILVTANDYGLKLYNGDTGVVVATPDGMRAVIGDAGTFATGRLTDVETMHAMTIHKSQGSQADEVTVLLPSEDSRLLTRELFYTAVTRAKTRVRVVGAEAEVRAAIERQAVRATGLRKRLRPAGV
# Sequence (A0QS30 whole entry): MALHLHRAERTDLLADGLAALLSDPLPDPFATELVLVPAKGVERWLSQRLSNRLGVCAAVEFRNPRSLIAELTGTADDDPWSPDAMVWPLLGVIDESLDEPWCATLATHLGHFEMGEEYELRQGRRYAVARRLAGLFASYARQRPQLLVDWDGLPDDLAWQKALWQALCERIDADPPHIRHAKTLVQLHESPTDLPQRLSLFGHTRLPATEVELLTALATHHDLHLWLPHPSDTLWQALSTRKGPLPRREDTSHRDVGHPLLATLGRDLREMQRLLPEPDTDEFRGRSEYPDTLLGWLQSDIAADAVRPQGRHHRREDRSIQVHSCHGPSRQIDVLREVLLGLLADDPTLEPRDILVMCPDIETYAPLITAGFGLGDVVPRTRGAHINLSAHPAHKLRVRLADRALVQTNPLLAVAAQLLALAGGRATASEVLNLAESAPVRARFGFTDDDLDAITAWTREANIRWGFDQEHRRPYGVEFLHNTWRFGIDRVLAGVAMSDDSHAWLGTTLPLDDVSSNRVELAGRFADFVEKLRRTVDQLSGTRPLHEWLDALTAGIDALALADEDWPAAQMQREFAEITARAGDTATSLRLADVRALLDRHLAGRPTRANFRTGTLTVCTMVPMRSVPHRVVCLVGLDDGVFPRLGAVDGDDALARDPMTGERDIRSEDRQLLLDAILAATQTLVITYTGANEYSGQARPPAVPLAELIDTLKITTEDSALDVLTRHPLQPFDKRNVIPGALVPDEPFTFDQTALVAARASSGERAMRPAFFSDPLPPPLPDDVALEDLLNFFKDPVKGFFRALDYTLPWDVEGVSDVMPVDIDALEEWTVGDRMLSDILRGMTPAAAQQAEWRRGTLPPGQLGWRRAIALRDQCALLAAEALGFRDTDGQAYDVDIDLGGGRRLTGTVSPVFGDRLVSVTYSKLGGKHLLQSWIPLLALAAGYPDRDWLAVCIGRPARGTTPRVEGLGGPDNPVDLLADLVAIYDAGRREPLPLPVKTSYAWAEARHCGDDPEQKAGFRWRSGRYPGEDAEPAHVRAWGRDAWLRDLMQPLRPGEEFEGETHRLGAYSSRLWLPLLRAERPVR
# procedure summary: Purified RecBCD nuclease assay
# test settings: purified enzyme; read-out: Nuclease IC50, M. smeg RecBCD

- compound: "CCn1cc(C(=O)O)c(=O)c2cnc(N3CCN(C(=S)Nc4ccc(C(F)(F)F)cc4)CC3)nc21"
  IC50 [µM]: 30
- compound: "COc1c(N2CCN(C(=S)Nc3ccc(C(F)(F)F)cc3)C(C)C2)c(F)cc2c(=O)c(C(=O)O)cn(C3CC3)c12 (stereo not shown)"
  IC50 [µM]: 12
- compound: "COc1c(N2CCN(C(=S)Nc3cccc(C(F)(F)F)c3)C(C)C2)c(F)cc2c(=O)c(C(=O)O)cn(C3CC3)c12 (stereo not shown)"
  IC50 [µM]: 2.1
- compound: "O=C(O)c1cn(C2CC2)c2cc(N3CCN(C(=S)Nc4cccc(C(F)(F)F)c4)CC3)c(F)cc2c1=O"
  IC50 [µM]: 6
- compound: "CCn1cc(C(=O)O)c(=O)c2cc(F)c(N3CCN(C(=S)Nc4cccc(C(F)(F)F)c4)C(C)C3)c(F)c21 (stereo not shown)"
  IC50 [µM]: 20
- compound: "CCn1cc(C(=O)O)c(=O)c2cc(F)c(N3CCN(C(=S)Nc4ccc(C(F)(F)F)cc4)C(C)C3)c(F)c21 (stereo not shown)"
  IC50 [µM]: 12
- compound: "COc1c(N2CC3CCCN(C(=S)Nc4cccc(C(F)(F)F)c4)C3C2)c(F)cc2c(=O)c(C(=O)O)cn(C3CC3)c12 (stereo not shown)"
  IC50 [µM]: 10
